test target: human GLP-1 receptor (human, UniProt P43220 24-463)
experiment description: cell-based or functional assay
No end group written: not given here.
measurement name: EC50 human (nM)

INSERT INTO assay_data (binder, assay_result) VALUES
  ('SHAEGTFTSDVSSYLEGQAAKEFIAWLVKGR (ends and bridges not checked, Not pegylated; also called S-CLP-1) [S-GLP-1 (SEQ ID NO: 250)]', 0.4),
  ('MIHAEGTFTSDVSSYLEGQAAKEFIAWLVKGR (not fully specified; ends and bridges not checked, Not pegylated) [MI-GLP1 (SEQ ID NO: 260)]', 0.6),
  ('PHAEGTFTSDVSSYLEGQAAKEFIAWLVKGR (ends and bridges not checked, Not pegylated; also called P-CLP-1) [P-GLP-1 (SEQ ID NO: 249)]', 0.2),
  ('MRHAEGTFTSDVSSYLEGQAAKEFIAWLVKGR (ends and bridges not checked, Not pegylated) [MR-GLP1 (SEQ ID NO: 254)]', 8),
  ('MKHAEGTFTSDVSSYLEGQAAKEFIAWLVKGR (not fully specified; ends and bridges not checked, Not pegylated) [MK-GLP1 (SEQ ID NO: 255)]', 4),
  ('VHAEGTFTSDVSSYLEGQAAKEFIAWLVKGR (ends and bridges not checked, Not pegylated) [V-GLP-1 (SEQ ID NO: 252)]', 0.2),
  ('MHAEGTFTSDVSSYLEGQAAKEFIAWLVKGR (Not pegylated) [M-GLP1 (SEQ ID NO: 256)]', 0.086),
  ('MYHAEGTFTSDVSSYLEGQAAKEFIAWLVKGR (ends and bridges not checked, Not pegylated) [MY-GLP1 (SEQ ID NO: 259)]', 0.4),
  ('MHHAEGTFTSDVSSYLEGQAAKEFIAWLVKGR (ends and bridges not checked, Not pegylated) [MH-GLP1 (SEQ ID NO: 257)]', 2),
  ('MQHAEGTFTSDVSSYLEGQAAKEFIAWLVKGR (ends and bridges not checked, Not pegylated) [MQ-GLP1 (SEQ ID NO: 253)]', 0.5),
  ('MFHAEGTFTSDVSSYLEGQAAKEFIAWLVKGR (ends and bridges not checked, Not pegylated) [MF-GLP1 (SEQ ID NO: 266)]', 1),
  ('MDHAEGTFTSDVSSYLEGQAAKEFIAWLVKGR (Not pegylated) [MD-GLP1 (SEQ ID NO: 261)]', 0.3),
  ('MMHAEGTFTSDVSSYLEGQAAKEFIAWLVKGR (not fully specified; ends and bridges not checked, Not pegylated) [MM-GLP1 (SEQ ID NO: 267)]', 0.5),
  ('MNHAEGTFTSDVSSYLEGQAAKEFIAWLVKGR (ends and bridges not checked, Not pegylated) [MN-GLP1 (SEQ ID NO: 263)]', 0.3),
  ('GHAEGTFTSDVSSYLEGQAAKEFIAWLVKGR (not fully specified, Not pegylated) [G-GLP-1 (SEQ ID NO: 248)]', 1),
  ('AHAEGTFTSDVSSYLEGQAAKEFIAWLVKGR (Not pegylated) [A-GLP-1 (SEQ ID NO: 247)]', 0.2),
  ('MLHAEGTFTSDVSSYLEGQAAKEFIAWLVKGR (ends and bridges not checked, Not pegylated) [ML-GLP1 (SEQ ID NO: 262)]', 0.7),
  ('THAEGTFTSDVSSYLEGQAAKEFIAWLVKGR (not fully specified; ends and bridges not checked, Not pegylated) [T-GLP-1 (SEQ ID NO: 251)]', 0.3),
  ('MWHAEGTFTSDVSSYLEGQAAKEFIAWLVKGR (ends and bridges not checked, Not pegylated) [MW-GLP1 (SEQ ID NO: 265)]', 0.8),
  ('MEHAEGTFTSDVSSYLEGQAAKEFIAWLVKGR (Not pegylated) [ME-GLP1 (SEQ ID NO: 264)]', 1),
  ('MHHHAEGTFTSDVSSYLEGQAAKEFIAWLVKGR (ends and bridges not checked, Not pegylated) [MHH-GLP1 (SEQ ID NO: 258)]', 1);

src = patent US20100048468A1
